Molecular target: GST-Co-NF-kB (Capsaspora owczarzaki, UniProt F1ARL5 200-546)
Sequence: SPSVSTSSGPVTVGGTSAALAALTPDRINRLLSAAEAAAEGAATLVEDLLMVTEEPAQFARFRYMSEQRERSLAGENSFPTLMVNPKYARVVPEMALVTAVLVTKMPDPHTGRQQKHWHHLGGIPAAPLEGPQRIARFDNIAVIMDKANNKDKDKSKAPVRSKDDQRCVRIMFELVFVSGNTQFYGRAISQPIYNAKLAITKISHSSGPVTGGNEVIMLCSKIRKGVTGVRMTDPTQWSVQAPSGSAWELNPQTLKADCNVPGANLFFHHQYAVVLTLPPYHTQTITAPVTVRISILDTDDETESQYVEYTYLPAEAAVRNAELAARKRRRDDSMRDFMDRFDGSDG
Experiment: protein-binding microarray (PBM); PBM: ~300 nM protein, 6 mM HEPES pH 7.8, 80 mM KCl, 0.5 mM EDTA, 0.5 mM EGTA, 6% glycerol, 35 ng/ul poly-dIdC, 1% milk, 1 h, room temperature; high values mean tight binding
Settings: dsDNA, one strand shown
Hi! Just check whether binding signal is below 2 z-score. Below gives True, equal or above gives False.

# macromolecule_sequence, target_entity, cat
data = [
    ("CCGATTAACATCAAGTCCCCCCCTGATGTTAATCGGGTCTTGATTCGCTTGACGCTGCTG", "GST-Co-NF-kB (Capsaspora owczarzaki, UniProt F1ARL5 200-546)", "False"),
    ("CCGATTAACATCAGCATGGGAAATGATGTTAATCGGGTCTTGATTCGCTTGACGCTGCTG", "GST-Co-NF-kB (Capsaspora owczarzaki, UniProt F1ARL5 200-546)", "True"),
    ("CCGATTAACATCAGTTTCCCCCATGATGTTAATCGGGTCTTGATTCGCTTGACGCTGCTG", "GST-Co-NF-kB (Capsaspora owczarzaki, UniProt F1ARL5 200-546)", "False"),
    ("CCGATTAACATCAAGTTTACCCCTGATGTTAATCGGGTCTTGATTCGCTTGACGCTGCTG", "GST-Co-NF-kB (Capsaspora owczarzaki, UniProt F1ARL5 200-546)", "False"),
]

----------
Molecular target: GST-Aq-NF-kB (Amphimedon queenslandica, UniProt A9Y5G7 2-389)
Sequence: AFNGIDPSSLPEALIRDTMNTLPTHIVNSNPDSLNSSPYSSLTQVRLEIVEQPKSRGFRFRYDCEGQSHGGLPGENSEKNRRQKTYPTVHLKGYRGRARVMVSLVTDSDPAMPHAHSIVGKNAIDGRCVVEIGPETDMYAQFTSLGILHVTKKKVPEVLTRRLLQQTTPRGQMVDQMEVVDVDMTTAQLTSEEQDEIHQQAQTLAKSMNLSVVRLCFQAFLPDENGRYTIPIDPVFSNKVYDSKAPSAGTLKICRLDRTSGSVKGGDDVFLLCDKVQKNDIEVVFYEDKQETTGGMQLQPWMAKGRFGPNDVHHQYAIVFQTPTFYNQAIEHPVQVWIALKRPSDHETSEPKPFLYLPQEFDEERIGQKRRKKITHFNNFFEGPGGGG
Test: protein-binding microarray (PBM); PBM: ~300 nM protein, 6 mM HEPES pH 7.8, 80 mM KCl, 0.5 mM EDTA, 0.5 mM EGTA, 6% glycerol, 35 ng/ul poly-dIdC, 1% milk, 1 h, room temperature; Ap Aiptasia and Nv Nematostella (sea anemones) / Co Capsaspora / Aq Amphimedon (sponge) / Dm Drosophila / Hu human; RHD is the Rel homology domain; high values mean tight binding
Details: dsDNA, one strand shown
Hi! Just check whether binding signal is below 3 z-score. Below gives fulfilled, equal or above gives not fulfilled.

# macromolecule_sequence, cat
measured = [
    ("CCGATTAACATCAGGCCGTCCCCTGATGTTAATCGGGTCTTGATTCGCTTGACGCTGCTG", "not fulfilled"),
    ("CCGATTAACATCAAAAAATTTTCTGATGTTAATCGGGTCTTGATTCGCTTGACGCTGCTG", "fulfilled"),
    ("CCGATTAACATCAGGGGAGTGGATGATGTTAATCGGGTCTTGATTCGCTTGACGCTGCTG", "fulfilled"),
    ("CCGATTAACATCAAATTATCCCCTGATGTTAATCGGGTCTTGATTCGCTTGACGCTGCTG", "not fulfilled"),
    ("CCGATTAACATCAGGGCTCCCCATGATGTTAATCGGGTCTTGATTCGCTTGACGCTGCTG", "fulfilled"),
    ("CCGATTAACATCAAGGAAATTTCTGATGTTAATCGGGTCTTGATTCGCTTGACGCTGCTG", "fulfilled"),
    ("CCGATTAACATCAGGACTGTCCCTGATGTTAATCGGGTCTTGATTCGCTTGACGCTGCTG", "not fulfilled"),
    ("CCGATTAACATCACTGTTTTCCCTGATGTTAATCGGGTCTTGATTCGCTTGACGCTGCTG", "not fulfilled"),
    ("CCGATTAACATCAGGGGGTTGACTGATGTTAATCGGGTCTTGATTCGCTTGACGCTGCTG", "not fulfilled"),
]
